# system: STING (Homo sapiens, UniProt Q86WV6, G230A/H232R/R293Q/R71H)
# Sequence (Q86WV6 whole entry R71H/G230A/H232R/R293Q): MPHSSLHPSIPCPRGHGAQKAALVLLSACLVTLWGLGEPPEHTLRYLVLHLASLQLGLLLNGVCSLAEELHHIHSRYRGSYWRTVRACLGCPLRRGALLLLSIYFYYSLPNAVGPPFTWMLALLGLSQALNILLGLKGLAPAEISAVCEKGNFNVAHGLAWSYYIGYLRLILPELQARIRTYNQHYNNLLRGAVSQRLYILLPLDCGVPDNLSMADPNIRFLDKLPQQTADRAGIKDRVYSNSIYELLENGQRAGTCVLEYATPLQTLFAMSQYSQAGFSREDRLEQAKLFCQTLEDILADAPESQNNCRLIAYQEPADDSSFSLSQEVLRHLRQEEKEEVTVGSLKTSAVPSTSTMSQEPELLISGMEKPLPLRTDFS
# measurement.protocol: STING reporter assay in THP1-Dual KO-IFNAR2 cells (2′3′cGAMP stimulation, luciferase reporter)
# settings: 15 μM 2′3′cGAMP stimulation, 24 h, read-out: Pharmaron, THP1_IFNAR2 STING 24 h Luci Normalized: GeoMean EC50
// EC50 lookup, one value per entry

Here's what some known entries look like.
1) CC(=O)Nc1c[nH]c2ccc(Oc3ccc(C(F)(F)F)nc3)cc12 [Compound 123] ... 5 to 100 µM
2) C[C@]1(C(=O)Nc2c[nH]c3ccc(OCc4ccc(C(F)(F)F)cc4)cc23)C[C@@H](O)C1 [Compound 414] ... 0.2 to 1 µM
3) CC(=O)Nc1c[nH]c2ccc(OCCc3ccc(C(F)(F)F)cc3)nc12 [Compound 248] ... 1 to 5 µM

[in] Kindly state the measured EC50 obtained for CC(=O)Nc1c[nH]c2ccc(Oc3ccc(C(F)(F)F)cn3)cc12 [Compound 116] with STING (Homo sapiens, UniProt Q86WV6, G230A/H232R/R293Q/R71H).
[out] 5 to 100 µM

[in] Kindly state the measured EC50 obtained for CC(=O)Nc1c[nH]c2ccc(COCc3ccc(Cl)c(Cl)c3)cc12 [Compound 101] with STING (Homo sapiens, UniProt Q86WV6, G230A/H232R/R293Q/R71H).
[out] 0.2 to 1 µM

[in] Kindly state the measured EC50 obtained for CC1(C)CC(C(=O)Nc2c[nH]c3ccc(OCC[C@@H]4C[C@@H]5CN(CC(F)(F)F)C[C@@H]5C4)cc23)C1 [Compound 346] with STING (Homo sapiens, UniProt Q86WV6, G230A/H232R/R293Q/R71H).
[out] 0.2 to 1 µM

[in] Kindly state the measured EC50 obtained for N#C[C@H]1C[C@@H]1C(=O)Nc1c[nH]c2ccc(O[C@H]3C[C@H](c4ccc(C(F)(F)F)cc4)C3)cc12 [Compound 562] with STING (Homo sapiens, UniProt Q86WV6, G230A/H232R/R293Q/R71H).
[out] 0.2 to 1 µM

[in] Kindly state the measured EC50 obtained for CC(=O)Nc1c[nH]c2ccc(OCC(F)C3CCN(CC(F)(F)F)CC3)cc12 (centres unmarked) [Compound 105] with STING (Homo sapiens, UniProt Q86WV6, G230A/H232R/R293Q/R71H).
[out] 1 to 5 µM

---

// pEC50 lookup, one value per entry
# system: STING (Homo sapiens, UniProt Q86WV6, G230A/H232R/R293Q/R71H)
# measurement.protocol: STING reporter assay in THP1-Dual KO-IFNAR2 cells (2′3′cGAMP stimulation, luciferase reporter)
# settings: 15 μM 2′3′cGAMP stimulation, 24 h, read-out: Pharmaron, THP1_IFNAR2 STING 24 h Luci Normalized: GeoMean EC50
pEC50: −log10 of the molar value.

1. CC(=O)Nc1c[nH]c2ccc(CCOc3ccc(C#N)cc3)cc12 ... 5.30 to 6.00
2. CC1(C(=O)Nc2c[nH]c3ccc(O[C@H]4C[C@H](c5ccc(C(F)(F)F)cc5)C4)cc23)CNC1 ... 5.30 to 6.00
3. CC(=O)Nc1c[nH]c2ccc(C(O)CCc3ccc(C(F)(F)F)cc3)cc12 (stereo not shown) ... 5.30 to 6.00

# evaluate next
[in] Kindly state the measured pEC50 obtained for CC1(C)CC1C(=O)Nc1c[nH]c2ccc(CCOc3ccc(C(F)(F)F)cc3)cc12 (stereo not shown) with STING (Homo sapiens, UniProt Q86WV6, G230A/H232R/R293Q/R71H).
[out] 6.00 to 6.70
